Molecular target: HLA-A*02:01
Assay: IEDB peptide-MHC binding, purified MHC/competitive/radioactivity; bounds were set here for any values at or beyond the usual limits of such assays
Details: source organism: Human alphaherpesvirus 1
So basically every entry gets a class from its IC50, ranges being low value: < 20 nM; medium value: ≥ 20 nM and < 80 nM; high value: ≥ 80 nM

Into which category would you place RLIDRMLTA ?
low value

Into which category would you place GPGDPDVYL ?
high value

Into which category would you place LLLRQWLHV ?
high value

Into which category would you place LVVTAIVYV ?
high value

Into which category would you place LLFNSLYPA ?
low value

Into which category would you place ALLDRDCRV ?
low value

Into which category would you place YILNKPVFI ?
medium value

Into which category would you place FLTCTDRSV ?
high value

Into which category would you place RLPHICYPV ?
low value

Into which category would you place ALVAWLTHA ?
low value

Into which category would you place FMSVVNTNI ?
medium value

Into which category would you place ALAAIENYV ?
low value

Into which category would you place FLGGHVAVA ?
medium value

Into which category would you place AVFGVVAIV ?
high value

Into which category would you place FTQKSLFPI ?
high value

Into which category would you place ALYACVLAA ?
low value

Into which category would you place GLLGSLVGA ?
low value

Into which category would you place YFHALVYFV ?
high value

Into which category would you place FLTPLSVTL ?
low value

Into which category would you place VLGAAIWWV ?
medium value

Into which category would you place YLLNYAGRI ?
high value

Into which category would you place RLCLDVPPV ?
low value

Into which category would you place MLIKGVDLV ?
low value

Into which category would you place VLADAINGL ?
high value

Into which category would you place FVWQERAAV ?
high value

* * *

Biological target: HLA-A*02:01
Test: IEDB peptide-MHC binding, purified MHC/competitive/radioactivity; bounds were set here for any values at or beyond the usual limits of such assays
Conditions: source organism: Human alphaherpesvirus 1
Measurement kind: pIC50
Please report pIC50 as the negative decimal logarithm of the molar concentration, giving only the number.

Recall the reported pIC50 of GLAVDLYAL on HLA-A*02:01 and write it down.
7.92

Recall the reported pIC50 of YIFSYDAYT on HLA-A*02:01 and write it down.
6.51

Recall the reported pIC50 of ELFGEAFEV on HLA-A*02:01 and write it down.
7.05

Recall the reported pIC50 of FLRSCHWVL on HLA-A*02:01 and write it down.
6.24

Recall the reported pIC50 of GLAVAMEV on HLA-A*02:01 and write it down.
7.60

Recall the reported pIC50 of LMDGHTGMV on HLA-A*02:01 and write it down.
6.74

Reference source for all entries: the Immune Epitope Database (IEDB)
